Test system: HMM-mfMSR1 (monkey MSR1 extracellular domain)
Sequence (as listed by the source): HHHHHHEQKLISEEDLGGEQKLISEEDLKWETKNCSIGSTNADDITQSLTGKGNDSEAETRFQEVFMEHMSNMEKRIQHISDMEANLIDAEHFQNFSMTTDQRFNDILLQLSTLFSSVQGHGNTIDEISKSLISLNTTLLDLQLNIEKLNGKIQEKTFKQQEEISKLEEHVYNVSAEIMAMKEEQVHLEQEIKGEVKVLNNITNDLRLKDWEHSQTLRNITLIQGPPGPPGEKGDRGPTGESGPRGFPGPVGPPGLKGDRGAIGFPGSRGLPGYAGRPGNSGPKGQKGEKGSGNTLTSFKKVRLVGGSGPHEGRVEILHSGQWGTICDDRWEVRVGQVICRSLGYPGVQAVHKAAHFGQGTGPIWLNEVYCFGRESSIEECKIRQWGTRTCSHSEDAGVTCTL
test details: Biacore surface plasmon resonance binding kinetics of anti-MSR1 mAbs, antibody-capture format
run conditions: 37° C.; analyte HMM-mfMSR1; antibody-capture format; NB = no binding observed
quantity name: ka
Write the quantity with the unit trailing the number.

**Q:** Answer with the recorded ka for the molecule listed here: H1H27731P-N297Q: one of "Twelve anti-MSR1 antibodies"; "made with an N297Q single point mutation in human Fcγ portion" (antibody, V domains shown) VH: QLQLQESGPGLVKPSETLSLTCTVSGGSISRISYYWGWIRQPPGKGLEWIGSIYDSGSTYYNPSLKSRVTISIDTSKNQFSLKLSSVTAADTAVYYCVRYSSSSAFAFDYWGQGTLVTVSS VL: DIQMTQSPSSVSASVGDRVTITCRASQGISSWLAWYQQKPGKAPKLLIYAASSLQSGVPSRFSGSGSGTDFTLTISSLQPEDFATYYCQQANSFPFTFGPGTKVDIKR
**A:** 278000 M⁻¹ s⁻¹

Data credit: patent US12497460B2
